Origin of the recorded values: patent US8247211B2

- System: Escherichia coli
- assayExplanation: In vitro antibacterial evaluation: minimum inhibitory concentration (MIC), broth dilution method
- Type: cell-based
- cond: Escherichia coli (GC 4560); 18 hours at 35° C.
testReadout: MIC Escherichia coli (GC 4560) (µg/mL)
The response must be a number in µg/mL with no trailing unit.

CC(c1ccccc1)C1NC(=O)CNC(=O)C(CO)NC(=O)C(C(O)C2CNC(=N)N2C2OC(CO)C(O)C(O)C2O)NC(=O)C(C(O)C2CNC(=N)N2)NC(=O)C(Cc2ccc(OC3OC(CO)C(OC4OC5COC(c6cccc(Oc7cccc(C(F)(F)F)c7)c6)OC5C(O)C4O)C(O)C3O)cc2)NC1=O (centres unmarked); 32

Now for another entry.
Give the value of MIC Escherichia coli (GC 4560) reported for the following: CC(c1ccc(Cl)cc1)C1NC(=O)CNC(=O)C(CO)NC(=O)C(C(O)C2CNC(=N)N2C2OC(CO)C(O)C(O)C2O)NC(=O)C(C(O)C2CNC(=N)N2)NC(=O)C(Cc2ccc(OC3OC(CO)C(OC4OC5COC(c6ccccc6)OC5C(O)C4O)C(O)C3O)cc2)NC1=O (centres unmarked) 0.5
